- Tested on: MS2 coat protein
- TEST DETAILS: apparent Kd, MS2 coat protein; higher = weaker binding; RNA-MaP array
- ASSAY CONDITIONS: ligand present: flavin mononucleotide; designed as: ON switch for flavin mononucleotide
METRIC: apparent Kd (nM)
# number only, unit nM dropped from output

Examples from the recorded data:
- RESIDUE CODES: "AAAACAUGAGGAUCACCCAUGUCCAAAUAAAUACACGGAACUAGAAGGGAAAAUCGAAAUUAAUAUCAGGAUAUAGGCAAAGCA"
  apparent Kd, nM: 42.2
- RESIDUE CODES: "UUAACAUGAGGAUCACCCAUGUGAAGCCGGCGAUGAAUAGUACAGGAUAUCGAAUACCGCCUAGACGAGAAGGGUAUCAAUCGG"
  apparent Kd, nM: 12.7

Lab note: next sequence to report on.
Prompt: Name the recorded apparent Kd for CGCCUAGGGUAUCAGGAUAUGACGGGCAUAACAUGAGGAUCACCCAUGUAAGAGUAGUACAGUUGUCAGAAGGGAUGAUCUAGAAU .
Response: 25.5
